# Protocol Notes: Determination of bio-accumulation: urinary clearance pharmacokinetic study in rats
# Condition Details: recovery of administered amount in urine after 96 h, oral gavage, 73 micro Moles per kg body weight, N=3
Observation Type: % Recovery (96 h) (%)
One number for each entry, in %.

Before answering, review these 4 worked examples.
N.O=C(O)C(F)(F)OC(F)(F)C(F)(F)C(F)(F)F; 97
N.O=C(O)C(F)(F)C(F)(F)OC(F)(F)F; 100
N.O=C(O)C(F)(F)C(F)(F)C(F)(F)C(F)(F)C(F)(F)C(F)(F)C(F)(F)F [Compound C-1, C7F15COONH4, reference compound]; 6
N.O=C(O)C(F)(F)C(F)(F)C(F)(F)OC(F)C(F)(F)F (stereo not shown); 95

Go through the items and report each one's % Recovery (96 h).
1. N.O=C(O)C(F)(F)C(F)OC(F)(F)C(F)(F)C(F)(F)F (stereo not shown)
2. N.O=C(O)C(F)(F)OC(F)(F)OC(F)(F)F
3. N.O=C(O)C(F)(F)C(F)(F)C(F)(F)C(F)(F)C(F)(F)OC(F)C(F)(F)F (stereo not shown)

1. 94
2. 96
3. 32

* * *

# Protocol Notes: Determination of bio-accumulation: urinary clearance pharmacokinetic study in rats
# Condition Details: recovery of administered amount in urine after 96 h, oral gavage, 73 micro Moles per kg body weight, N=3
Observation Type: % Recovery (96 h) (%)
Numbers only, in %.

Before answering, review these 5 worked examples.
N.O=C(O)C(F)(F)C(F)(F)OC(F)(F)C(F)(F)F; 100
N.O=C(O)C(F)(F)OC(F)(F)C(F)(F)C(F)(F)OC(F)(F)F [Compound 1, CF3—O—(CF2)3—O—CF2—COONH4]; 73
N.O=C(O)C(F)(F)OC(F)(F)OC(F)(F)OC(F)(F)F; 100
N.O=C(O)C(F)(F)OC(F)(F)C(F)(F)C(F)(F)OC(F)(F)F [Compound 4, CF3—(OCF2)3—OCF2—COONH4]; 50
N.O=C(O)C(F)(F)C(F)(F)OC(F)(F)C(F)(F)C(F)(F)F; 82

Go through the items and report each one's % Recovery (96 h).
1. N.O=C(O)C(F)OC(F)(F)C(F)(F)C(F)(F)OC(F)(F)F (stereo not drawn)
2. N.O=C(O)C(F)(F)C(F)OC(F)(F)C(F)(F)C(F)(F)OC(F)(F)F (stereo not drawn)
3. N.O=C(O)C(F)(F)C(F)(F)OC(F)(F)C(F)(F)C(F)(F)C(F)(F)F
4. N.O=C(O)C(F)(F)OC(F)(F)C(F)(F)OC(F)(F)C(F)(F)F

1: 95; 2: 84; 3: 42; 4: 99

* * *

# Protocol Notes: Determination of bio-accumulation: urinary clearance pharmacokinetic study in rats
# Condition Details: renal half-life, oral gavage, 73 micro Moles per kg body weight, N=3, urine by fluorine NMR, exponential least squares curve fitting
Record form. Attribute: T½. Fill in for each entry.
Provide a numeric answer, followed by its unit.

Before answering, review these 3 worked examples.
N.O=C(O)C(F)(F)OC(F)(F)C(F)(F)C(F)(F)F; 11 h
N.O=C(O)C(F)(F)C(F)(F)OC(F)(F)C(F)(F)C(F)(F)C(F)(F)F; 31 h
N.O=C(O)C(F)(F)C(F)(F)C(F)(F)C(F)(F)C(F)(F)OC(F)C(F)(F)F (stereo not shown); 24 h

Go through the items and report each one's T½.
1. N.O=C(O)C(F)(F)C(F)(F)OC(F)(F)C(F)(F)F
2. N.O=C(O)C(F)(F)C(F)(F)OC(F)(F)F
3. N.O=C(O)C(F)(F)OC(F)(F)OC(F)(F)F

["10 h", "11 h", "12 h"]

Value lookup for T½; key = N.O=C(O)C(F)(F)C(F)OC(F)(F)C(F)(F)C(F)(F)F (stereo not shown)
11 h

* * *

Record form. Attribute: T½. Fill in for each entry.
# Protocol Notes: Determination of bio-accumulation: urinary clearance pharmacokinetic study in rats
# Condition Details: renal half-life, oral gavage, 73 micro Moles per kg body weight, N=3, urine by fluorine NMR, exponential least squares curve fitting
Provide a numeric answer, followed by its unit.

N.O=C(O)C(F)(F)C(F)(F)C(F)(F)OC(F)C(F)(F)F (stereo not drawn) [Compound 15, CF3—CFH—O—(CF2)3—COONH4]; 8 h
N.O=C(O)C(F)(F)C(F)OC(F)(F)C(F)(F)C(F)(F)OC(F)(F)F (stereo not drawn) [Compound 11, CF3—O—CF2—CF2—CF2—O—CHF—CF2—COONH4]; 12 h
N.O=C(O)C(F)(F)OC(F)(F)OC(F)(F)OC(F)(F)F [Compound 3, CF3—OCF2—OCF2—OCF2—COONH4]; 12 h
N.O=C(O)C(F)(F)C(F)(F)OC(F)(F)C(F)(F)C(F)(F)F [Compound 8, C3F7—O—CF2—CF2—COONH4]; 12 h
N.O=C(O)C(F)OC(F)(F)C(F)(F)C(F)(F)OC(F)(F)F (stereo not drawn) [Compound 12, CF3—O—CF2—CF2—CF2—O—CHF—COONH4]; 11 h

Value lookup for T½; key = N.O=C(O)C(F)(F)OC(F)(F)C(F)(F)OC(F)(F)C(F)(F)F [Compound 10, C2F5—O—CF2—CF2—O—CF2—COONH4]
10 h
